// data source = PubChem BioAssay AID434970

tested on: intestinal alkaline phosphatase [Mus musculus]; assay: mouse intestinal phosphatase enzyme activation – biochemical, luminescence, single concentration, confirmation (AID 434970); conditions: purified mouse IAP, CDP-Star luminescence, 30 min, at 10 µM; measured here: IAP activation factor, stronger effect = higher value
The campaign covered roughly 11,000 compounds. About 310 (2.8%) were called active. For the sample, actives were picked, then their nearest neighbours and some compounds at random.
Please mark Condition met if the recorded activation factor is equal to or greater than 2, and Condition not met if it falls below.

>>> category_label("CCOc1ccccc1NC(=O)C1CCCN(C(=O)Nc2ccccc2)C1 (centres undefined)")
"Condition not met"
>>> category_label("Cc1cc(C)cc(NC(=O)NC2CCN(CC(=O)Nc3cccc(Cl)c3C)CC2)c1")
"Condition not met"
>>> category_label("CCOc1ccccc1NC(=O)CN1CCC(NC(=O)Nc2ccccc2)CC1")
"Condition met"
>>> category_label("CC(C)C(=O)Nc1nnc(SCC(=O)NCc2cccs2)s1")
"Condition not met"
>>> category_label("O=C(Nc1nnc(SCc2ccccc2Cl)s1)C1COc2ccccc2O1 (centres undefined)")
"Condition not met"
>>> category_label("CCn1nnnc1SCC(=O)Nc1cc(C)on1")
"Condition not met"
>>> category_label("O=C(Nc1cccc(Cl)c1)Nc1nc(-c2ccccc2)cs1")
"Condition met"
>>> category_label("CCOC(=O)c1ccc(NC(=O)NC2CCN(CC(=O)NCc3ccc4c(c3)OCO4)CC2)cc1")
"Condition not met"
>>> category_label("O=C(Nc1nc(-c2ccccc2)cs1)NC1CCCCC1")
"Condition not met"
